The reported numbers originate from PubChem BioAssay (NCI).

- Assay: NCI Yeast Anticancer Drug Screen. Data for the cln2 rad14 strain (AID 165);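 note: 0% = growth equal to vehicle treated cultures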
- Condition Label: S. cerevisiae cln2 rad14 strain, at 5.0 µM (retest, dose inferred, filed as 0.5), active compounds read high
Compounds without any hit were thinned out: in the full panel of roughly 79,000, 15% have a hit.
Reported Endpoint: growth inhibition (%)

Compound | Reported Endpoint | Value Observed
CCCCCCCCCCCCCCCCCC(=O)OCCOCCO | growth inhibition | -33
C/C(=N/NC(N)=S)C(CN(C)C)C(C1=C(O)c2ccccc2OC1)c1ccccc1 (stereo not drawn) | growth inhibition | -1
CCCC(O)[C@@]1(CC)CC(C)C(O)(C2(C)C[C@H](C)[C@@H](C(CC)C(=O)C(C)[C@@H](O)[C@H](C)C3OC(O)(C(CC)C(=O)O)[C@@H](C)C(O)C3CC)O2)O1 (stereo partly drawn) | growth inhibition | 0

---

- Assay: NCI Yeast Anticancer Drug Screen. Data for the mlh1 rad18 strain (AID 175)
- Condition Label: S. cerevisiae mlh1 rad18 strain growth inhibition; at 5.0 µM (retest, dose inferred, filed as 0.5); active compounds read high
This is part of a sample that, as a whole, favours compounds with a hit. Of some 79,000 tested, about 15% had one in any assay.
Entry flag: yes (1) if growth inhibition reaches 20%; no (0) if it does not.

Compound | Class Assignment
COc1ccc(/C=C2\N=C(c3ccco3)OC2=O)cc1Br | no (0)
Cc1ccc(Cl)cc1NC(=O)N(C)CCOC(=O)Nc1cccc(Cl)c1 | yes (1)
CS(=O)(=O)N1C(=O)C2C3CCC(O3)C2C1=O (stereo not drawn) | no (0)
COc1ccc(C2SCC(=O)N2c2ccc(-c3ccc(-n4c(-c5ccccc5)nc5ccccc5c4=O)cc3)cc2)cc1 (stereo not drawn) | no (0)
CC(=O)NC1C(=O)CC(c2ccccc2)N(C)C1c1ccccc1 (stereo not drawn) | no (0)
FC(F)(F)c1ccc(Nc2ccc(C(F)(F)F)cc2)cc1 | no (0)
CCC1CCCN1CCOC(=O)C(c1ccccc1)C1C=CCC1 (stereo not drawn) | yes (1)
O=C1OCC/C1=C1/CCOC1 | yes (1)
O=S(=O)(CC(Br)Br)c1ccccc1 | no (0)
O=C1NC(=S)S/C1=C\c1cc(Cl)ccc1O | no (0)
CCOC(=O)C1=C(N)OC(c2ccccc2)=C(C#N)C1c1ccc(C)cc1 (stereo not drawn) | no (0)
COC(=O)c1c(COC(=O)NC(C)C)c2n(c1C)CS(=O)(=O)C2 | no (0)
Oc1ccccc1C1N(Cc2ccc(Cl)cc2)CCN1Cc1ccc(Cl)cc1 | yes (1)
O=C(CNC(=O)OCc1ccccc1)NNc1ccccc1Cl | yes (1)
CCCCC(C)(C)OC(=O)Nc1ccc(Br)cc1 | no (0)
c1ccc([B-](c2ccccc2)(c2ccccc2)c2ccccc2)cc1 | no (0)
CCOC(=O)CC1C(=O)N(c2nc(-c3ccc(Br)cc3)cs2)N=C1C (stereo not drawn) | no (0)
CCCCOC(=O)C#CC(=O)OCCCC | no (0)
Cc1ccc(N=C(N)Nc2ccc(C)cn2)nc1 | no (0)
O=[N+]([O-])c1ccc(-c2nc(/C=N/N3CCCCC3)cs2)o1 | no (0)
OC(C(=Nc1ccccc1)c1ccccc1)c1ccccc1 (stereo not drawn) | yes (1)
COc1ccc(/C=C2\C(=O)N(C)C(=O)c3cc(OC)c(OC)cc32)cc1OC | no (0)
N#CSC#CCCC#CSC#N | yes (1)
c1ccc(-c2cc(CN3CCOCC3)c(-c3ccccc3)o2)cc1 | no (0)
Clc1ccc2nc3c(c(N4CCCCC4)c2c1)CCCC3 | no (0)
Cc1ccc([N+](=O)[O-])cc1Cl | no (0)
CCCCCCCCCCCCOC(=O)C[n+]1cccc(C(N)=O)c1 | no (0)
CC(=O)Nc1ccc2c(c1)Cc1cccc(F)c1-2 | no (0)
CCNc1cc2c3c(c1)CCCN3CCC2 | no (0)
CN(C)C(=O)/C=C/c1c[nH]c(=O)[nH]c1=O | no (0)
CCCCCCNC(=S)N/N=C(\C)c1ccccn1 | yes (1)
O=C1C2=C(C(=O)c3cnccc31)C1C=CC2CC1 (stereo not drawn) | yes (1)
Oc1cccc2c(Br)ccnc12 | no (0)
